# ASSAY_NAME: AUC (0 to infinity) in human plasma at 1 mg administered as single dose
# Format: ADME, cell-free
# Design: dose 1 mg, time infinity
ASSAY_READOUT: AUC(0-inf) (ng·h/mL)
Give bare numbers, in ng·h/mL.

The value of AUC(0-inf) measured for the molecule Cc1ccc(CNC(=O)c2nn(-c3ccc(F)cc3)c(CC[C@@H](O)C[C@@H](O)CC(=O)O)c2C(C)C)cc1 turned out to be 78.5

* * *

# MEASURED_ON: OATP1B3 (Homo sapiens, UniProt Q9NPD5)
# Sequence (Q9NPD5 whole entry): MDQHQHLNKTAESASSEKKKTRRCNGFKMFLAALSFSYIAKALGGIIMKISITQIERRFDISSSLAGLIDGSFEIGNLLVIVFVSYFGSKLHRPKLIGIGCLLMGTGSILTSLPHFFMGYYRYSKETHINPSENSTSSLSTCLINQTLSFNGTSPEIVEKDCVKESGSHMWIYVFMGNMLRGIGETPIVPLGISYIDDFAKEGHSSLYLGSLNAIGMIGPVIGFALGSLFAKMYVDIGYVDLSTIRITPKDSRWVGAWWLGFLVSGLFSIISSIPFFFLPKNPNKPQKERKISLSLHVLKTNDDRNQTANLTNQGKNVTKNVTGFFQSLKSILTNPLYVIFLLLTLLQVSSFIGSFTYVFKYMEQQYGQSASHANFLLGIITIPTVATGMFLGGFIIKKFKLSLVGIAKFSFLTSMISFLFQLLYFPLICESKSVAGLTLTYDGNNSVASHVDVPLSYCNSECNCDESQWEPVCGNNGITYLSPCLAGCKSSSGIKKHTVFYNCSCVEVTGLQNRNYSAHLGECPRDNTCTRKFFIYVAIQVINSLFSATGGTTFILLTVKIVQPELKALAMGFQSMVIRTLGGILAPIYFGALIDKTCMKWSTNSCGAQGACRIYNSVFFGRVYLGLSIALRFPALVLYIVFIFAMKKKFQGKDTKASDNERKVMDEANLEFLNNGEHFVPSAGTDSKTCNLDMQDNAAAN
# ASSAY_NAME: Drug uptake by human hepatic OATP1B3 transporter expressed in HEK293 cells at 1 uM relative to wild-type HEK293 cells
# Assay type: ADME, cell-based
# ASSAY_SETUP: HEK293 cells expressing human OATP1B3, read-out: FC
Consider the following compounds; for each one, report its uptake ratio at 1 µM.
Numbers only.

Below, each entry is followed by its recorded uptake ratio at 1 µM result.
- SMILES_TEXT: "CC[C@H](C)C(=O)O[C@H]1C[C@H](O)C=C2C=C[C@H](C)[C@H](CC[C@@H](O)C[C@@H](O)CC(=O)O)[C@H]21"
  uptake ratio at 1 µM: 13
- SMILES_TEXT: "Cc1ccc(CNC(=O)c2nn(-c3ccc(F)cc3)c(CC[C@@H](O)C[C@@H](O)CC(=O)O)c2C(C)C)cc1"
  uptake ratio at 1 µM: 11.1
- SMILES_TEXT: "CC(C)c1nc(N(C)S(C)(=O)=O)nc(-c2ccc(F)cc2)c1/C=C/[C@@H](O)C[C@@H](O)CC(=O)O"
  uptake ratio at 1 µM: 3.7
- SMILES_TEXT: "O=C([O-])C[C@H](O)C[C@H](O)CCn1c(-c2ccc(F)cc2)nc(C(=O)NCc2cccc(F)c2)c1C1CC1.[Na+]"
  uptake ratio at 1 µM: 34.5

Consider now this further compound.
The value of uptake ratio at 1 µM measured for the compound Cc1ncc2n1-c1ccc(Cl)cc1C(c1ccccc1F)=NC2 turned out to be 0.9
